These entries and their values trace back to patent US5191079A.

Structures can show the parent of a compound that is named as a salt.
quantity: MIC (µg/mL)
Return type: number; implicit unit µg/mL.

INPUT: // map CN1Cc2csc3c(C(=O)O)c(=O)c4cc(F)c(N5CCN(C)C(CF)C5)c1c4n23 (centres unmarked) [Compound (K), hydrochloride] to recorded MIC (system: Escherichia coli NIHJ JC-2)
OUTPUT: 0.2

INPUT: // map CC1CN(c2c(F)cc3c(=O)c(C(=O)O)c4scc5n4c3c2N(C)C5)CCO1 (centres unmarked) [Compound (A)] to recorded MIC (system: Escherichia coli NIHJ JC-2)
OUTPUT: 0.1

INPUT: // map CN1Cc2csc3c(C(=O)O)c(=O)c4cc(F)c(N5CCO[C@H](CO)C5)c1c4n23 [Compound (M)] to recorded MIC (system: Escherichia coli NIHJ JC-2)
OUTPUT: 0.1

INPUT: // map CN1Cc2csc3c(C(=O)O)c(=O)c4cc(F)c(N5CCN6CCOC[C@H]6C5)c1c4n23 [Compound (F)] to recorded MIC (system: Escherichia coli NIHJ JC-2)
OUTPUT: 0.39

INPUT: // map CN1Cc2csc3c(C(=O)O)c(=O)c4cc(F)c(N5CCN(C)C(CO)C5)c1c4n23 (centres unmarked) [Compound (I), hydrochloride] to recorded MIC (system: Escherichia coli NIHJ JC-2)
OUTPUT: 0.2

INPUT: // map CCOCC1CN(c2c(F)cc3c(=O)c(C(=O)O)c4scc5n4c3c2N(C)C5)CCO1 (centres unmarked) [Compound (Q)] to recorded MIC (system: Escherichia coli NIHJ JC-2)
OUTPUT: 0.78

INPUT: // map CN1Cc2csc3c(C(=O)O)c(=O)c4cc(F)c(N5CCOC(CO)C5)c1c4n23 (centres unmarked) [Compound (B)] to recorded MIC (system: Escherichia coli NIHJ JC-2)
OUTPUT: 0.1

INPUT: // map CN1Cc2csc3c(C(=O)O)c(=O)c4cc(F)c(N5CCC(N(C)C)CC5)c1c4n23 [Compound (H)] to recorded MIC (system: Escherichia coli NIHJ JC-2)
OUTPUT: 0.2
